These data points were gathered from patent US20260337189A1.

system: rice sheath blight; experiment: Test of resistance to rice sheath blight (bactericidal activity test); format: in vivo; conditions: live pot test; Table 5, 400 mg/L
assay_metric: bactericidal activity against rice sheath blight

Cc1ccc(S(=O)(=O)n2c3ccc(Cl)cc3c3c2cc2ccccc2[n+]3C)cc1.[Cl-] ... more than 50%
Cc1ccc(S(=O)(=O)n2c3ccccc3c3c2cc2ccccc2[n+]3CC(C)(C)C)cc1 ... more than 50%
Cc1ccc(S(=O)(=O)n2c3ccccc3c3c2cc2cc(C)ccc2[n+]3C)cc1.[Cl-] ... more than 50%

---

tested on: rice sheath blight; assay: Test of resistance to rice sheath blight (bactericidal activity test); type: in vivo; conditions: live pot test; Table 5, 400 mg/L
assay_metric: bactericidal activity against rice sheath blight

Cc1ccc(S(=O)(=O)n2c3ccccc3c3c2cc2cc(C(F)(F)F)ccc2[n+]3C)cc1.[Cl-] ... more than 50%
C[n+]1c2ccccc2c(NCC2CC2)c2[nH]c3ccccc3c21 ... more than 50%
CN1CCC(Nc2c3ccccc3[n+](C)c3c2[nH]c2ccccc23)CC1.[I-] ... more than 50%
